# Assay System: furin, P09958;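 note: purified furin at 1:10 enzyme:substrate in 50 mM HEPES pH 7.5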
# Sequence (P09958 whole entry): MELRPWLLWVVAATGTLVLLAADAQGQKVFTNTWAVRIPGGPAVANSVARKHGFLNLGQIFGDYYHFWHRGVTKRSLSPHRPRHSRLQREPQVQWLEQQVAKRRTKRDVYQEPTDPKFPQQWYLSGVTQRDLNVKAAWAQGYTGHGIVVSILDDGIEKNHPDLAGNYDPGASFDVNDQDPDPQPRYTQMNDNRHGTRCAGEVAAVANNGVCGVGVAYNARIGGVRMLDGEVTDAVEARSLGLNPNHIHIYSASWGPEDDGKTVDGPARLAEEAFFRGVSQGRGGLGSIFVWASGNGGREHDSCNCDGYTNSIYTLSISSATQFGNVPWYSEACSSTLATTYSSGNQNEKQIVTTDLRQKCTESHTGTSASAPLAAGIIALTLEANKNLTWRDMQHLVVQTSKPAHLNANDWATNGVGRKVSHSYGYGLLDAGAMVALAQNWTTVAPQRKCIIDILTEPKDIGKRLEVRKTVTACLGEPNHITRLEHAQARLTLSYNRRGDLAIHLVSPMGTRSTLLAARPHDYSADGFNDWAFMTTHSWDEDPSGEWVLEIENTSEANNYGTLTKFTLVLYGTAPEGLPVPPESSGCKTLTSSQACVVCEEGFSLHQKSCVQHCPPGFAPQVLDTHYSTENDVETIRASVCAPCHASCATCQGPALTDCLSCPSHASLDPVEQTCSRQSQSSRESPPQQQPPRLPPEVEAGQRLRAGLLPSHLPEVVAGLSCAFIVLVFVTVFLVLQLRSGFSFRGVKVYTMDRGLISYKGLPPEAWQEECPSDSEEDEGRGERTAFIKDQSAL
# Protocol Notes: furin cleavage Z-score vs untreated control; higher = more cleavage, active = 3.5 or more, inactive = 1 or less, 8 variable residues between constant flanks
# Assay Setup: 7.5 min
Some of the results follow. How many sequences the whole screen found active is unknown.
Reported Metric: furin cleavage Z-score
Would you mind answering with just the numeric figure?

{"columns": ["Residue Sequence", "furin cleavage Z-score"],
 "data": [
  ["CATTPCEGSWAGNASASA [HC73]", 0.057],
  ["CAEHEVPCHRAGNASASA [HC2455]", 0.493],
  ["CAWCLWWLQYAGNASASA [HC581]", -0.105],
  ["CARASRDVAQAGNASASA [FS-1686]", 3.28],
  ["CATVATRDGKAGNASASA [HC283]", -0.692]
]}

Input line: Entry CARASRDSSEAGNASASA [FS-2892] : reported furin cleavage Z-score = ?
Output line: -0.582

Input line: Lookup CARALRNVWQAGNASASA [FS-1682]
Output line: -1.32

Input line: Further, for CAQLPCEPEPAGNASASA [HC1240] ?
Output line: 0.775

Input line: One more sequence: CAHVGPGEGAAGNASASA [HC1113]
Output line: -0.488
